measurement target: Melanocortin receptor 4 (Homo sapiens, UniProt P32245)
Sequence (P32245 whole entry): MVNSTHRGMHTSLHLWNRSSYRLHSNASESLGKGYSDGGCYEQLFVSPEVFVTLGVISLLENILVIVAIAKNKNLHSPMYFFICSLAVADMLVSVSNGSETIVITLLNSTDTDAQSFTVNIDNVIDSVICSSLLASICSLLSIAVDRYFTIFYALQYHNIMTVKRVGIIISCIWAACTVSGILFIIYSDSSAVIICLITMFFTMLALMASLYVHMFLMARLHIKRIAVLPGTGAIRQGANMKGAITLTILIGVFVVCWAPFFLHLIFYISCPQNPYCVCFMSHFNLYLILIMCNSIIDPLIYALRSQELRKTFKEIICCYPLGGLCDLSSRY
protocol description: Agonist activity at human MC4R expressed in CHO cells assessed as increase of alpha-MSH-stimulated cAMP release pretreated for 10 mins before alpha-MSH challenge measured after 40 mins relative to alpha-MSH
Type: functional, cell-based
Catalogue of Activity readings, one per entry.
endpoint name: Activity (%)

chemical smiles: Cc1cc2c(cc1Cl)C1(CCN(C(=O)[C@@H]3CN(C(C)(C)C)C[C@H]3c3ccc(F)cc3F)CC1)C[C@@H]2C(C)(C)C(=O)NC(C)(C)CO
endpoint name: Activity
reported result: 89
--
chemical smiles: Cc1cc2c(cc1Cl)C1(CCN(C(=O)[C@@H]3CN(C(C)(C)C)C[C@H]3c3ccc(F)cc3F)CC1)C[C@@H]2C(C)(C)C(=O)N1CC[C@H](F)C1
endpoint name: Activity
reported result: 106
--
chemical smiles: Cc1cc2c(cc1Cl)C1(CCN(C(=O)[C@@H]3CN(C(C)(C)C)C[C@H]3c3ccc(F)cc3F)CC1)C[C@@H]2C(C)(C)C(=O)NCCF
endpoint name: Activity
reported result: 84
--
chemical smiles: Cc1cc2c(cc1Cl)C1(CCN(C(=O)[C@@H]3CN(C(C)(C)C)C[C@H]3c3ccc(F)cc3F)CC1)C[C@@H]2C(C)(C)C(=O)N1CC[C@@H](F)C1
endpoint name: Activity
reported result: 87
--
chemical smiles: Cc1cc2c(cc1Cl)C1(CCN(C(=O)[C@@H]3CN(C(C)(C)C)C[C@H]3c3ccc(F)cc3F)CC1)C[C@@H]2C(C)(C)C(=O)N1CC[C@@H](O)C1
endpoint name: Activity
reported result: 98
--
chemical smiles: Cc1cc2c(cc1Cl)C1(CCN(C(=O)[C@@H]3CN(C(C)(C)C)C[C@H]3c3ccc(F)cc3F)CC1)C[C@@H]2C(C)(C)C(=O)N1CC[C@H](O)C1
endpoint name: Activity
reported result: 88
--
chemical smiles: Cc1cc2c(cc1Cl)C1(CCN(C(=O)[C@@H]3CN(C(C)(C)C)C[C@H]3c3ccc(F)cc3F)CC1)C[C@@H]2C(C)(C)C(=O)N(C)C
endpoint name: Activity
reported result: 108
--
chemical smiles: CC(=O)NC(C)(C)[C@H]1CC2(CCN(C(=O)[C@@H]3CN(C(C)(C)C)C[C@H]3c3ccc(F)cc3F)CC2)c2cc(Cl)c(C)cc21
endpoint name: Activity
reported result: 90
--
chemical smiles: Cc1cc2c(cc1Cl)C1(CCN(C(=O)[C@@H]3CN(C(C)(C)C)C[C@H]3c3ccc(F)cc3F)CC1)C[C@H]2C(C)(C)C(=O)N(C)C
endpoint name: Activity
reported result: 80
--
chemical smiles: Cc1cc2c(cc1Cl)C1(CCN(C(=O)[C@@H]3CN(C(C)(C)C)C[C@H]3c3ccc(F)cc3F)CC1)C[C@@H]2C(C)(C)C(=O)NCCO
endpoint name: Activity
reported result: 100
--
chemical smiles: CO[C@H]1CCN(C(=O)C(C)(C)[C@H]2CC3(CCN(C(=O)[C@@H]4CN(C(C)(C)C)C[C@H]4c4ccc(F)cc4F)CC3)c3cc(Cl)c(C)cc32)C1
endpoint name: Activity
reported result: 112
--
chemical smiles: Cc1cc2c(cc1Cl)C1(CCN(C(=O)[C@@H]3CN(C(C)(C)C)C[C@H]3c3ccc(F)cc3F)CC1)C[C@@H]2C(C)(C)C(=O)N1CCC1
endpoint name: Activity
reported result: 88
--
chemical smiles: CC(=O)N(C)C(C)(C)[C@H]1CC2(CCN(C(=O)[C@@H]3CN(C(C)(C)C)C[C@H]3c3ccc(F)cc3F)CC2)c2cc(Cl)c(C)cc21
endpoint name: Activity
reported result: 83
--
chemical smiles: Cc1cc2c(cc1Cl)C1(CCN(C(=O)[C@@H]3CN(C(C)(C)C)C[C@H]3c3ccc(F)cc3F)CC1)C[C@@H]2C(C)(C)C(=O)NC(C)C
endpoint name: Activity
reported result: 92
--
chemical smiles: CNC(=O)C(C)(C)[C@@H]1CC2(CCN(C(=O)[C@@H]3CN(C(C)(C)C)C[C@H]3c3ccc(F)cc3F)CC2)c2cc(Cl)c(C)cc21
endpoint name: Activity
reported result: 86
--
chemical smiles: Cc1cc2c(cc1Cl)C1(CCN(C(=O)[C@@H]3CN(C(C)(C)C)C[C@H]3c3ccc(F)cc3F)CC1)C[C@@H]2C(C)(C)C(=O)NCC(C)C
endpoint name: Activity
reported result: 92
--
chemical smiles: CCN(CC)C(=O)C(C)(C)[C@H]1CC2(CCN(C(=O)[C@@H]3CN(C(C)(C)C)C[C@H]3c3ccc(F)cc3F)CC2)c2cc(Cl)c(C)cc21
endpoint name: Activity
reported result: 81
--
chemical smiles: CO[C@@H]1CCN(C(=O)C(C)(C)[C@H]2CC3(CCN(C(=O)[C@@H]4CN(C(C)(C)C)C[C@H]4c4ccc(F)cc4F)CC3)c3cc(Cl)c(C)cc32)C1
endpoint name: Activity
reported result: 111
--
chemical smiles: Cc1cc2c(cc1Cl)C1(CCN(C(=O)[C@@H]3CN(C(C)(C)C)C[C@H]3c3ccc(F)cc3F)CC1)C[C@@H]2C(C)(C)C(=O)NC(C)(C)C
endpoint name: Activity
reported result: 76
--
chemical smiles: Cc1cc2c(cc1Cl)C1(CCN(C(=O)[C@@H]3CN(C(C)(C)C)C[C@H]3c3ccc(F)cc3F)CC1)C[C@@H]2C(C)(C)C(=O)N1CCOCC1
endpoint name: Activity
reported result: 94
--
chemical smiles: CC[C@H](NC(C)=O)c1cc(Cl)ccc1C1CCN(C(=O)[C@@H]2CN(C(C)(C)C)C[C@H]2c2ccc(F)cc2F)CC1
endpoint name: Activity
reported result: 97
--
chemical smiles: CCN(C)C(=O)C(C)(C)[C@H]1CC2(CCN(C(=O)[C@@H]3CN(C(C)(C)C)C[C@H]3c3ccc(F)cc3F)CC2)c2cc(Cl)c(C)cc21
endpoint name: Activity
reported result: 103
--
chemical smiles: Cc1cc2c(cc1Cl)C1(CCN(C(=O)[C@@H]3CN(C(C)(C)C)C[C@H]3c3ccc(F)cc3F)CC1)C[C@@H]2C(C)(C)C(=O)NCC(F)(F)F
endpoint name: Activity
reported result: 89
--
chemical smiles: Cc1cc2c(cc1Cl)C1(CCN(C(=O)[C@@H]3CN(C(C)(C)C)C[C@H]3c3ccc(F)cc3F)CC1)C[C@@H]2C(C)(C)C(=O)N1C[C@@H]2C[C@H]1CO2
endpoint name: Activity
reported result: 96
--
chemical smiles: Cc1cc2c(cc1Cl)C1(CCN(C(=O)[C@@H]3CN(C(C)(C)C)C[C@H]3c3ccc(F)cc3F)CC1)C[C@H]2C(C)(C)C(=O)NCC(F)(F)F
endpoint name: Activity
reported result: 78
